# tgt: MMP-9 (Homo sapiens, UniProt P14780)
# Construct: purchased Abchem (so in the source)
# Sequence (P14780 94-707): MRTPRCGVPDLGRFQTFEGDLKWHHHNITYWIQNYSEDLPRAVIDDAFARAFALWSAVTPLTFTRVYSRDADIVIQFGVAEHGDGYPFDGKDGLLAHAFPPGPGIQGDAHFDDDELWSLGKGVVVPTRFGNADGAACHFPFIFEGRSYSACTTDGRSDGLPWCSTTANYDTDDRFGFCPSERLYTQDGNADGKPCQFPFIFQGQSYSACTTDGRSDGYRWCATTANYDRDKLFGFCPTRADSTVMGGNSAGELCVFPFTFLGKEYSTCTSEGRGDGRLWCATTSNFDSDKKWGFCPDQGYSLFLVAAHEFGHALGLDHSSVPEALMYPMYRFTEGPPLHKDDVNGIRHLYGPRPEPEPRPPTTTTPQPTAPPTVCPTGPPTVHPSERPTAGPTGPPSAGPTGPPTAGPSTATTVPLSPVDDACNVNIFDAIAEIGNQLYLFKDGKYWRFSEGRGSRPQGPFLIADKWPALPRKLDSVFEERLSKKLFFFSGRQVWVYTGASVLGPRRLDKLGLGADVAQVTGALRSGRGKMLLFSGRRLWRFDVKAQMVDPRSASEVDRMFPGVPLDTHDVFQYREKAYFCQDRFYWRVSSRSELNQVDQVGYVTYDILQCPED
# measurement.description: MMP9 Inhibitor Screening Assay Kit (ab139448), colorimetric thiopeptide substrate, OD412
# Format: biochemical
# applied.conditions: remaining enzyme activity, untreated group = 100%; compound at 50 nM; n=2
property.label: remaining activity at 0.05 µM
Hi, when you answer, please include the unit after the number. Thanks!

Endpoint output: remaining activity at 0.05 µM of Cc1cc(C)c(S(=O)(=O)N2CCCCC2C(=O)NO)c(C)c1 (stereo not shown) . Value? 100%

Endpoint output: remaining activity at 0.05 µM of CCCCOc1ccc(S(=O)(=O)N2CCCCC2C(=O)NO)cc1 (stereo not shown) . Value? 0%

Endpoint output: remaining activity at 0.05 µM of O=C(NO)C1CCCCN1S(=O)(=O)c1ccccc1 (stereo not shown) . Value? 79.1%

Endpoint output: remaining activity at 0.05 µM of Cc1cc(C)c(S(=O)(=O)NC(Cc2ccccc2)C(=O)NO)c(C)c1 (stereo not shown) . Value? 100%
